REPORTED_PROPERTY: melting point

Look over these answered cases.
compound=N#Cc1cccc(-n2ncc(C(=O)O)c2C#N)c1 result="190 to 192 °C"
compound="CNC(=O)NC1OCC(OC(C)=O)C(OC(C)=O)C1OC(C)=O (stereo not given)" result="170 to 172 °C"
compound=CN(C)c1nn(-c2c(Cl)cc(C(F)(F)F)cc2Cl)c(=O)n1C result="105 to 107 °C"
compound="Cc1cc(Cl)cc(C(=O)NC(C)(C#N)C2CC2)c1NC(=O)c1cc(C(F)(F)F)nn1-c1ncccc1Cl (stereo not given)" result="226 to 228 °C"
compound="Clc1ccc(OCC2COC(CBr)(c3ccc(Cl)cc3)O2)cc1 (stereo not given)" result="165 °C"

Per the record, CC(C)c1cc(C(C)C)c(CC(=O)O)c(-c2ccc(F)cc2)c1CO has melting point of 124 to 126 °C

Record N=C(N)Nc1c(Cl)cccc1Cl . Reported melting point: 213 °C

The recorded melting point for O=C(COc1ccc(Cl)cc1)c1ccccc1 is 81 to 86 °C

In plain terms, O=S1(=O)N=C(NC2CCN(Cc3ccccc3)C2)Nc2ccc(Cl)cc21 (stereo not given) has a documented melting point of 208 to 210 °C

Data point: Cc1ccc(S(=O)(=O)OCC2CCc3nc(C)sc3C2)cc1 (stereo not given) ; melting point = 70 to 71 °C

----------
REPORTED_PROPERTY: melting point

// melting point lookup, compound = Oc1ccc(-c2cccnc2)cc1O , result: 288 to 290 °C

Kindly note the recorded melting point for CCOc1ccc(S(=O)(=O)N2CCN(CC)CC2)cc1C#N , which is 86 to 88 °C

melting point reading for CCOC1=NS(=O)(=O)c2cccc([N+](=O)[O-])c21 : 190 to 191 °C

The recorded melting point for BrC(Br)Cc1ccc(OCc2ccccc2)cc1 is 97 to 98 °C

Reported melting point for N#CN1CCN(c2nn(-c3ccccc3)c3ccccc23)CC1 was 118 to 120 °C

Lab note: measured melting point of Cc1cc(CCCCCCCOc2ccc(C(=O)N(C)C)cc2)on1 was 58 to 59 °C

The reported melting point of the compound CCn1c(=O)c2c(nc(/C=C/c3ccc(OC)c(OC)c3)n2C)n(CC)c1=O was 190 to 191 °C

According to the records, this compound CCCCc1nc2cccc(CO)c2n1Cc1ccc(-c2ccccc2-c2nnn[nH]2)cc1 displays melting point of 152 to 153 °C

Entry CN(O)CCCCc1ccc2c(c1)C(=O)c1sccc1CO2 , melting point reported as 107 to 108 °C

Recorded melting point (compound N#Cc1cnc2c(oc3ccccc32)c1Nc1ccc(Cl)cc1F ): 259 to 261 °C

The recorded melting point for entry CCCCCc1ccc(C(=O)Oc2ccc(C#N)c(F)c2F)cc1 equals 33 °C

Quick note, melting point for ClCCN1c2ccc(Cl)cc2C(c2ccsc2)=NCC1CCl (stereo unspecified) landed at 115 to 116 °C

Item: COC(=O)C1=C(C)N=C(OC)N(C(=O)Oc2ccc([N+](=O)[O-])cc2)C1c1ccc2nonc2c1 (stereo unspecified) | melting point: 180 to 183 °C

Data point: CC(=O)Nc1ccc(CC(=O)O)cc1Br ; melting point = 157 to 159 °C

Input O=S(=O)(NC1CCN(S(=O)(=O)c2cccs2)C1)c1ccc(Cl)cc1 (stereo unspecified) . Output melting point: 115 to 116 °C

----------
REPORTED_PROPERTY: melting point

compound=Cn1ncnc1COc1nn2c(-c3cc(F)ccc3F)nncc2c1-c1ccccc1 result="199 °C"
compound=CC1(C)c2ccccc2-c2[nH]c3ccccc3c21 result="160 °C"
compound=CC(C)NC(=O)N1CCC(Cc2ccc(NC3=NCCN3)cc2)CC1 result="191 to 192 °C"
compound=Cc1ccc(C)c(C(=O)C=Cc2ccccc2C(=O)Cl)c1 result="96 to 98 °C"
compound=O=C(O)C=Cc1ccc(-c2ccc3ncnc(Nc4ccc(OCc5cccc(F)c5)c(Cl)c4)c3c2)s1 result="252 °C"

Recorded result, CCCCCCCCn1nnnc1I , melting point: 40 °C

The measured melting point associated with COC(=O)CCc1sc(N)nc1-c1ccccc1 reads 130 to 131 °C

----------
compounds and their reported melting point

Measured melting point of CC(C)(C)c1cc(C(c2cccc([N+](=O)[O-])c2)N2CCCCC2)cc(C(C)(C)C)c1O (stereo not given) : 157 °C

----------
Property: melting point; scope: individual compounds

The compound listed as CC1COC(c2ccccc2)(c2ccc(Cl)nc2)O1 (stereo not given) has a reported melting point of 44 to 51 °C

The measured melting point associated with Cc1cscc1NC(=S)Nc1cc(C(F)(F)F)cc(Cl)c1N reads > 310 °C

The reported melting point of the compound O=C1C=C(c2ccc(Cl)cc2)C(=O)O1 was 144 to 145 °C

Measured melting point, NCC1CC(n2cc(-c3cccc(F)c3)c3c(N)ncnc32)C1 (stereo not given) : 101 to 102 °C

melting point for Cc1cc(-c2nc(COc3ccc(CCCn4ccnc4)cc3)co2)sc1Br is 92 to 93 °C

Form: compound = c1cncc(CNC2=Nc3ccccc3Nc3ncccc32)c1 ; melting point = 192 to 194 °C

Cc1nc(S(=O)(=O)Cc2ccc(Cl)cc2)nc2c1CCCC2 has a reported melting point of 151 °C

Noted for CCCCCCn1c2ccccc2c2ccc(CO)cc21 : its melting point reads 54 to 55 °C

# compound CN(C)c1cc(CC(C#N)=CNc2ccccc2)cc(N(C)C)c1N1CCCCC1 ; its melting point = 200 to 202 °C

Looking up COCCCSc1c2c(=O)n(C)c(=O)n(CC(C)C)c2cn1Cc1cccc2ccccc12 , I see its melting point listed as 92 to 94 °C

----------
In this section, each of the compounds is paired with its reported melting point.

compound=Cc1[nH]c(=O)ccc1-c1ccccc1 reported_property="melting point" result="201 to 208 °C"
compound=COc1cccc2c(=O)c3cc(F)ccc3oc12 reported_property="melting point" result="170 to 172 °C"

The recorded melting point for entry Cc1c(-c2ccc(NC(=O)NC(C)(C)C)cc2)nc2n1CCc1ccccc1C2OC1CCN(C)CC1 (configuration not stated) equals 173 °C

CC(O)C(C)(C)c1cc(Cn2cncn2)cc(C(C)(C)C#N)c1 (configuration not stated) yielded melting point of 83 to 84 °C

Record COC(=O)C(=O)c1ccc(OCCOc2ccnc3ccccc23)cc1 . Reported melting point: 135 to 136 °C

For reference, reported melting point for CC(C)Oc1ccc(C=C(C=O)C(C=O)=Cc2ccc(OC(C)C)cc2)cc1 stands at 200 to 202 °C

// melting point lookup, compound = Cc1nn(-c2cc(F)c(C#N)cc2F)c(C)c1Cl , result: 153 °C

// field: melting point; key: CCCCCCc1cc2c(cc1C(=O)O)CCCCC2(C)C ; value = 74 to 75 °C

get_value(item= CC(=O)Oc1cccc(C(=O)N[C@H]2COC(C)(C)OC[C@@H]2OS(C)(=O)=O)c1C , readout=melting point) returns 127 to 128 °C

// sample Cc1nc(SCc2cnccc2C(=O)O)sc1CC(=O)O , its melting point was 207 to 211 °C

What the record says about COC(=O)/C=C/Cn1c(=O)c2cc(C(=O)NCc3ccc(OC)cc3)sc2n(C)c1=O : melting point is 169 to 171 °C

Entry CCCCc1nc(SC)c(C(=O)OCC)n1Cc1cccc(-c2ccccc2S(=O)(=O)NC#N)c1 — recorded melting point = 118 °C

GET /value?item= COc1ccc(-c2ccc(C(=O)Nc3ccc4cc(CN5CCCC5)cnc4c3)cn2)cc1 &field=melting point returns 246 to 248 °C

melting point measured on CSc1ccc(Br)cn1 = 39 to 40 °C

melting point in this record for CCOCCOc1ccc(CCNC(=O)OC(C)(C)C)cc1 : 56 to 57 °C

Lab note: CC(=O)NCc1cccc(Nc2nccc(-c3sc(-c4cccs4)nc3C)n2)c1 gave melting point of 223 to 225 °C

Record summary for CCOC(=O)c1cc2c3c(ccc2[nH]1)OC[C@H](CO)O3 : reported melting point = 152 to 153 °C

Field melting point (entry O=Cc1cc(OCCCNC(=O)NC2CCCCC2)ccc1[N+](=O)[O-] ) reads 150 to 152 °C

----------
Each item that follows carries a reported melting point.

Worked cases, melting point given:
compound="CC1Cc2c(F)c(F)cc3c(=O)c(C(=O)O)cn(c23)N1C (stereo unspecified)" reported_property="melting point" result="270 to 271 °C"
compound=CCN1CCN(Cc2ccc(-c3cc4c(NCc5ccc(OC)nc5)ncnc4[nH]3)cc2)CC1 reported_property="melting point" result="305 °C"
compound=CSC(N)=C(C#N)C#N reported_property="melting point" result="228 to 229 °C"
compound=CCOC(=O)CCc1ccc2oc(Cc3ccc4ccccc4c3)nc2c1 reported_property="melting point" result="81 to 82 °C"
compound="CCCNC(=O)C(C)Cc1ccc2cccc(Cc3ccc(C(=O)OC)cc3OC)c2c1 (stereo unspecified)" reported_property="melting point" result="130 °C"
compound=COc1cccc(OC/C=C(\C)C=O)c1 reported_property="melting point" result="45 to 48 °C"
compound=CN1C(=O)Cc2ccsc2S1(=O)=O reported_property="melting point" result="136 to 137 °C"
compound=C[Si](C)(C)C#Cc1ccnc(Cl)n1 reported_property="melting point" result="51 to 54 °C"
compound="COc1ccc(CC2CNC(=O)N2)cc1OCc1ccccc1 (stereo unspecified)" reported_property="melting point" result="154 to 157 °C"
compound=CC1=CC=C[C@@H](O)[C@H]1O reported_property="melting point" result="56 to 57 °C"

# compound FC(F)C(F)(F)Sc1nc2c3ccccc3c3ccccc3c2[nH]1 ; its melting point = 230 to 231 °C

Hello, the source for this data is a melting point compilation (Tetko et al.; mined from patent text by program, amines drawn as free bases though some values may be those of a salt), in case you need it.
